- subject of test: h5-HT2AR (Homo sapiens, UniProt P28223)
- Construct: purchased Perkin Elmer, Inc. (Waltham, MA, USA)
- Sequence (P28223 whole entry): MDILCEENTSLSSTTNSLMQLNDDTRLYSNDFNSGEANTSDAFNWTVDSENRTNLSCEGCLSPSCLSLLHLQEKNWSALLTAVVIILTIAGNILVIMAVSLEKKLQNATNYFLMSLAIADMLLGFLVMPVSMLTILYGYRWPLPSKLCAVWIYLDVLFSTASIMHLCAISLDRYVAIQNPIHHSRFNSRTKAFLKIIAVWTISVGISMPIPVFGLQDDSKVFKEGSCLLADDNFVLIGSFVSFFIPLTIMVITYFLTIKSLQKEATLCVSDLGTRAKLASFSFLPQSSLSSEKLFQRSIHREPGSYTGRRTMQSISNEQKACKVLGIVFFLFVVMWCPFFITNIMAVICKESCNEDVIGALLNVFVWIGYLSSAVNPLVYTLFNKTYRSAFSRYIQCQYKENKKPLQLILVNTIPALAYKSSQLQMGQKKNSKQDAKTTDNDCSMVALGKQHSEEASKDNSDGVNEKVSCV
- Type: binding
- cond: 1 nM [3H]ketanserin, N ≥ 3; read-out: 5-HT2AR Ki ± SD
- Description: Binding assays were performed as described previously. Briefly, membrane preparations expressing h5-HT1AR, h5-HT2AR or hSERT (see Supplementary Material) were incubated with radiolabeled selective ligands 0.4 nM [^3H]8-OH-DPAT, 1 nM [^3H]ketanserin or 3 nM [^3H]imipramine, respectively. The drugs were diluted in the corresponding binding buffer and tested at increasing concentrations in duplicate. […] The trapped radioactivity was quantified. […]
Note to self: Ki under 100 nM means Met, ties and anything higher get Not met.

{"test smiles": "CCN(CCc1c[nH]c2ccc(OC)cc12)C(C)C", "category label": "Not met"}
{"test smiles": "CCN(CC)CCc1c[nH]c2ccc(OC)cc12", "category label": "Not met"}
{"test smiles": "C=CCN(CC=C)CCc1c[nH]c2ccc(OC)cc12", "category label": "Met"}
{"test smiles": "COc1ccc2[nH]cc(CCN(C)C(C)C)c2c1", "category label": "Not met"}
{"test smiles": "COc1ccc2[nH]cc(CCN3CCCC3)c2c1", "category label": "Not met"}
{"test smiles": "C=CCN(C)CCc1c[nH]c2ccc(OC)cc12", "category label": "Met"}
{"test smiles": "CCN(C)CCc1c[nH]c2ccc(OC)cc12", "category label": "Met"}
{"test smiles": "COc1ccc2[nH]cc(CCNC(C)C)c2c1", "category label": "Not met"}
